Sourced from ChEMBL document CHEMBL5365451

Molecular target: Neuronal acetylcholine receptor; alpha3/beta4 (Homo sapiens, UniProt P30926+P32297)
Sequence (P30926 whole entry): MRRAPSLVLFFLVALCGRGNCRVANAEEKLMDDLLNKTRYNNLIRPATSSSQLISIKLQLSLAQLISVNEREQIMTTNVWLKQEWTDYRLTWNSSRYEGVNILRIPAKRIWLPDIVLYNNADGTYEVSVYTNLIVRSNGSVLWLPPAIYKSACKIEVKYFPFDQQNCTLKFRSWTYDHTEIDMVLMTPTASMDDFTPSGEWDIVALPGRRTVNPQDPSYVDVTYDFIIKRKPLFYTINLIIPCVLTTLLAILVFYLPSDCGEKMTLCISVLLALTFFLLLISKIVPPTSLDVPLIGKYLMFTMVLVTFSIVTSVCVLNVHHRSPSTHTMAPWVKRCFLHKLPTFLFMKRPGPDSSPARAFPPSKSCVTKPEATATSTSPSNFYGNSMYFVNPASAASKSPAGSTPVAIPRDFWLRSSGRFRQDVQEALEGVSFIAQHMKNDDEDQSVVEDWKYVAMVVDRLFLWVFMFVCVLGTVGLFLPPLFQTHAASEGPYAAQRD
Sequence (P32297 whole entry): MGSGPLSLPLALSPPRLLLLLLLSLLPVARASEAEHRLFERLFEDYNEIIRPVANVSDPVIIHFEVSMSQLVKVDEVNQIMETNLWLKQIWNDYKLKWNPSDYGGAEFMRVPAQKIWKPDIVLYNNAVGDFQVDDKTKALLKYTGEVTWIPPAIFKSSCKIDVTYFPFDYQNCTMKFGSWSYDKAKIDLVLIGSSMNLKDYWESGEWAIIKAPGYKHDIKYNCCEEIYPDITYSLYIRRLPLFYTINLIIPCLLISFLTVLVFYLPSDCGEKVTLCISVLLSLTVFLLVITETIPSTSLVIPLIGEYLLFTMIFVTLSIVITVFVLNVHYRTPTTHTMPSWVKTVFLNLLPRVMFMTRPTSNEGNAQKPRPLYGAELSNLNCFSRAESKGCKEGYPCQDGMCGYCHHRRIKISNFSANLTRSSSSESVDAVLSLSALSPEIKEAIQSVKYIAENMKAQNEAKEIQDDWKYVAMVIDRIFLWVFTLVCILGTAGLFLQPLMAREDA
Experiment: Antagonist activity at human alpha3/beta4 nAChR expressed in HEK293 cells assessed as nicotine-induced intracellular calcium release incubated for 15 mins by FLIPR analysis
Catalogue of molecules with associated pIC50
Interpret pIC50 as the negative base-10 log of the concentration measured in mol/L.

>>> assay_result("CN(C)C1(CNC(=O)c2cc(-c3ccc(C(F)(F)F)cc3)n(C)n2)CCCC1")
5.85
>>> assay_result("CN1CCC[C@H](NC(=O)c2cc(-c3ccc(C(F)(F)F)cc3)n(C)n2)C1")
6.37
>>> assay_result("COc1ccc(-c2cc(C(=O)N[C@@H]3CCCN(C)C3)nn2C)c(Cl)c1")
5.68
>>> assay_result("Cn1nc(C(=O)NCCN2CCCCC2)cc1-c1ccc(C(F)(F)F)cc1")
6.35

Then there is this molecule:
// query pIC50 value for entry CN1CCC(NC(=O)c2cc(-c3ccc(C(F)(F)F)cc3)n(C)n2)C1 (racemic) 5.61
